FYI, the data here is from patent US6432913B1.

tested on: protein p140; experiment: Effects of various test compounds on p140 phosphorylation in rat L6 cells; format: cell-based; set-up: dose or concentration left out as unconfirmed; details: 60 min
# key: entry, value: Amount of tyrosine phosphorylated p140

MOLECULE: O=C1NC(=S)SC1c1ccccc1 (stereo not shown)
UNITS: copy/cell
Amount of tyrosine phosphorylated p140: 650
--
MOLECULE: CC1=CC(=O)c2ccccc2C1=O
UNITS: copy/cell
Amount of tyrosine phosphorylated p140: 750
--
MOLECULE: Cc1cc(N)c2ccccc2c1O
UNITS: copy/cell
Amount of tyrosine phosphorylated p140: 1600
--
MOLECULE: CC(C)CCOc1ccc(C=C2SC(=S)NC2=O)cc1
UNITS: copy/cell
Amount of tyrosine phosphorylated p140: 1600
